Source of measurements: PubChem BioAssay (NCI)

System: SK-MEL-5 melanoma
Assay: NCI-60 one-dose screen, 48 h
Conditions: 10 µM unless noted
Protocol: Growth inhibition of the SK-MEL-5 human tumor cell line is measured as a screen for anti-cancer activity. Cells are grown in 96 well plates and exposed to the test compound for 48 hours. Compounds are tested at a single concentration, which is 10^-5 M for most compounds. The reported endpoint is percent growth (GI% or GIPRCNT), where numbers from 0 - 100% represent growth inhibition, and numbers from -100% - 0 represent cell death. For example, a value of 40 represents 60% growth inhibition. […]
Compounds without any hit were thinned out: in the full panel of roughly 83,000, 20% have a hit. Activity calls are given as the source filed them. The calls were made as follows: active = growth percent below 10; inactive = the rest.
Possible outcomes: active, inactive

Compound: CCOC(=O)C1(Cc2ccccc2)CCN(Cc2cccc(OC)c2O)CC1
Cat: active
--
Compound: CN(O)c1nc(N(C)O)nc(N2CCOCC2)n1
Cat: inactive
--
Compound: CN(C)c1ccc(N=Cc2ccc(N3CCOCC3)cc2)cc1
Cat: inactive
--
Compound: COc1cc(NC(=O)CCSc2nc3ccccc3c(=O)n2Cc2ccccc2)cc(OC)c1OC
Cat: inactive
--
Compound: COc1cc2nc(-c3cnc(N(C)C)nc3)nc(NC3CCN(Cc4ccccc4)CC3)c2cc1OC
Cat: inactive
--
Compound: O=C1C(Cl)=C(NCc2ccco2)C(=O)c2ccccc21
Cat: active
--
Compound: CC(=O)O[C@@H]1/C=C/C(=O)N[C@@H](C)CCC/C=C/[C@@H]2CCC[C@H]21
Cat: inactive
--
Compound: COC(=O)/C(CCC=C(C)C)=C1\[C@@H](OC(C)=O)C[C@@]2(C)[C@H]1C[C@@H](O)[C@H]1[C@@]3(C)CC[C@H](NCCO)[C@@H](C)[C@@H]3CC[C@@]12C
Cat: inactive
--
Compound: Cc1cc2c(c(C)c1Cl)C(=O)/C(=C/c1ccco1)O2
Cat: inactive
--
Compound: O=c1c2cc(F)ccc2sc2c(NCCN3CCCC3)nc3ccccc3c12
Cat: inactive
--
Compound: CC(C)C[C@H](C(=O)N[C@@H](C)C(N)=O)N1CC=CCN(O)S1(=O)=O
Cat: inactive
--
Compound: O=C(Nc1ccccc1O)c1ccc(Oc2cccc(C(=O)Nc3ccccc3O)c2)cc1
Cat: inactive
--
Compound: CC[C@]1(O)C[C@@H]2CN(CCc3c([nH]c4ccccc34)[C@@](C(=O)OC)(c3cc4c(cc3OC)N(C)[C@H]3[C@@](O)(C(=O)OC)[C@H](OC(=O)CCCBr)[C@]5(CC)C=CCN6CC[C@]43[C@@H]65)C2)C1
Cat: active
--
Compound: COc1ccc(CCN2CCC(CN(C)Cc3cnn(-c4ccccc4)c3)CC2)cc1
Cat: inactive
--
Compound: COc1ccc(Cn2cc(Cn3c(=O)c(-c4nc5ccccc5[nH]4)cc4ccccc43)nn2)c(OC)c1OC
Cat: active
--
Compound: CCOC(=O)c1ccc2[nH]c(-c3ccccc3)cc(=O)c2c1
Cat: inactive
--
Compound: Nc1cccc(Nc2cc(S(=O)(=O)O)c(N)c3c2C(=O)c2ccccc2C3=O)c1
Cat: inactive
--
Compound: Cc1ccc2[nH]c(=O)cc(-n3nncc3Cn3c4ccccc4c4ccccc43)c2c1
Cat: inactive
--
Compound: CCCCN1CCN(c2ccc3nc(-c4ccc5nc(-c6ccc(C(F)(F)F)cc6)[nH]c5c4)[nH]c3c2)CC1
Cat: inactive
--
Compound: O=C(c1ccccc1)N(C(=S)NCCc1ccc(Cl)cc1)c1ccc(Cl)cc1
Cat: inactive
--
Compound: O=C(Nc1ccc(Cl)cc1F)c1cc(Br)ccc1O
Cat: active
--
Compound: O=Cc1c(OCc2cnnn2CC(=O)Nc2ccc(Cl)cc2)ccc2ccccc12
Cat: inactive
--
Compound: CCCCCCC(O)(c1ccc(F)cc1)C(CN1CCOCC1)c1ccccc1 (stereo unspecified)
Cat: inactive
--
Compound: COc1ccc(Cn2cc(Cn3cc(C=C4C(=O)NC(=O)NC4=O)c4ccccc43)nn2)cc1
Cat: inactive
--
Compound: CCCCCCCCCCCCCCn1cc(C2=C(c3coc4ccc(OC)cc34)C(=O)NC2=O)c2ccccc21
Cat: inactive
--
Compound: CN1CCN(Cc2ccc(NC(=O)c3cncc(C#Cc4nc(N)nc5[nH]ncc45)c3)cc2C(F)(F)F)CC1
Cat: inactive
--
Compound: O=C(c1ccccc1)N(CCc1ccc(Cl)cc1)C(=S)N(C(=O)c1ccccc1)c1ccccc1
Cat: inactive
--
Compound: O=C(NC1CCCCC1)C(c1cccs1)N(CCc1ccccc1)C(=O)c1ccco1 (stereo unspecified)
Cat: inactive
--
Compound: O=C(N/N=C/c1ccccc1Cl)C(=O)Nc1cccc(C(F)(F)F)c1
Cat: inactive
--
Compound: COc1ccc(/C=C2\CCC/C(=C\c3ccc(OC)c(OC)c3)C2=O)cc1OC
Cat: active
--
Compound: COC(=O)c1c2c(c(C)[n+]([O-])c1C)C(=O)C(NCc1ccc(F)c(F)c1)=CC2=O
Cat: active
